Test system: HCV pseudoparticles, genotype 1a (H77C) E1 and E2 envelope glycoproteins
method-notes: HCV pseudoparticle infection assay (luciferase reporter, Huh7 cells)
Assay type: cell-based
condition-parameters: Hepatitis C virus, Huh-7, 48 h, read-out: EC50 (nM) 1a (H77C), HCV pseudoparticles genotype 1a (H77C), Huh7 cells, luciferase 2 days after infection; numeric value
EC50 reference
reported-endpoint: EC50 (nM)

                                   compound  measured_value
0  Cc1ccc(NC(=O)C(=O)N2CCC3(CCN(C(=O)c4ccc(Nc5nc(NC6(c7ccc(Cl)cc7)CC6)nc(OCC(F)(F)F)n5)cc4)C3)C2)cc1 (stereo not drawn)           0.255
1  NC(=O)C(=O)N1CCC2(CCN(C(=O)c3ccc(Nc4nc(NC5(c6ccc(Cl)cc6)CC5)nc(OCC(F)(F)F)n4)cc3)C2)C1 (stereo not drawn)            1.64
2  O=C(C(=O)N1CCC2(CCN(C(=O)c3ccc(Nc4nc(NC5(c6ccc(Cl)cc6)CC5)nc(OCC(F)(F)F)n4)cc3)C2)C1)N1CCc2ccccc2C1 (stereo not drawn)            4.86
